test system: UO-31; assay: NCI tumour cell line growth inhibition, 48 h
The source made the active and inactive calls. Rule as the data show it: active = GI50 up to about 1.1 µM and inactive = higher.
Your response should consist of one outcome taken from active, inactive

# example entries with known answers
compound	qualitative label
O=C(/C=C/c1c(O)ccc2ccccc12)c1cccc2ccccc12	inactive
CCOC(=O)c1ccc(O)cc1	inactive

--- query ---
Called result for "O=c1c2cc(I)ccc2nc(-c2cccs2)n1/N=C/c1ccccc1"
inactive

----------
tested on: SK-MEL-5; assay: NCI tumour cell line growth inhibition, 48 h
The source made the active and inactive calls. Rule as the data show it: active = GI50 up to about 1.1 µM and inactive = higher.
Your response should consist of one outcome taken from active, inactive

# example entries with known answers
compound	qualitative label
CC(=O)O[C@]1(C(C)=O)CC[C@H]2[C@@H]3C[C@H](C)C4=CC(=O)C=C[C@]4(C)[C@@]3(F)[C@@H](O)C[C@@]21C [FLUOROMETHOLONE ACETATE]	inactive
OCC12C=CC(C1)c1ccccc12 (stereo unspecified)	inactive
COc1cc2c(cc1OC)C(=O)Cc1ccc3c(c1CNCC2)OCO3	inactive
CC(C)=CCC(O)C1=CC(=O)c2c(O)ccc(O)c2C1=O (stereo unspecified)	active

Called result for "CCCCc1ccc(Nc2nc(Cl)c3[nH]cnc3n2)cc1"
inactive

Called result for "Oc1c(Br)cc(CN(Cc2cc(Br)c(O)c(Br)c2)C2CCCCC2)cc1Br"
inactive

Called result for CCOP(=O)(OCC)C1(O)CC(n2cc(C)c(=O)[nH]c2=O)OC1CO (stereo unspecified)
inactive

Called result for "O=C(CC(=O)C1=CNc2ccccc2S1)C(=O)Nc1ccc(Cl)cc1"
inactive

----------
This section presents compounds with their documented GI50 values.
tested on: COLO 205; test: NCI tumour cell line growth inhibition, 48 h
Activity calls are given as the source filed them. No stated cut-off is given here; in the data, active = GI50 up to about 1.1 µM and inactive = higher.

> print(dat)
                                   compound             reported
1  CC(=O)Oc1ccccc1/C=C/C(=O)/C=C/c1ccccc1OC(C)=O   1.89 µM (inactive)
2                           CC(C)(/C=N\O)NO   > 10 µM (inactive)
3          CN(NC(=O)c1ccc(Cl)cc1)C1=NCCCCN1  > 100 µM (inactive)

Name the recorded GI50 for COc1cc(C2c3cc4c(cc3OC(Nc3ccccc3)C2C)OCO4)cc(OC)c1O (configuration not stated) .
11.3 µM (inactive)

Name the recorded GI50 for "NC(=O)C(=O)c1ncn(Cc2ccccc2)c1N" .
> 100 µM (inactive)

Name the recorded GI50 for "CSCC[C@@H]1C(=O)N(C)[C@H](C(C)(C)C)N1C(=O)c1ccccc1" .
> 100 µM (inactive)

Name the recorded GI50 for "C1COC(NC(C2CC2)C2CC2)=N1" .
> 100 µM (inactive)

Name the recorded GI50 for CCc1cccc(C(C)CC)c1NC(=O)C(=O)Cc1nc2ccccc2o1 (configuration not stated) .
> 50 µM (inactive)

Name the recorded GI50 for "Oc1cc(-c2ccccn2)nc2cccc(F)c12" .
> 100 µM (inactive)

Name the recorded GI50 for "CCOC(CNCCC(=O)OC)OCC" .
> 10 µM (inactive)

Name the recorded GI50 for COC(=O)C1=C(C)N2CCCOC2(C)C(C(=O)OC)C1c1cccc(Cl)c1 (configuration not stated) .
17.3 µM (inactive)

Name the recorded GI50 for CC1(C)Oc2ccc3c(=O)cc(-c4ccc(F)cc4)oc3c2C1C(=O)O (configuration not stated) .
> 100 µM (inactive)

The reported numbers originate from ChEMBL document CHEMBL1201862.
